Values compiled from patent US10772928B2.

assay target: T1, nSR100 (Mus musculus, UniProt Q8BKA3)
T1 construct: host or cells: mouse N2A cells
T1 sequence (Q8BKA3 1-608): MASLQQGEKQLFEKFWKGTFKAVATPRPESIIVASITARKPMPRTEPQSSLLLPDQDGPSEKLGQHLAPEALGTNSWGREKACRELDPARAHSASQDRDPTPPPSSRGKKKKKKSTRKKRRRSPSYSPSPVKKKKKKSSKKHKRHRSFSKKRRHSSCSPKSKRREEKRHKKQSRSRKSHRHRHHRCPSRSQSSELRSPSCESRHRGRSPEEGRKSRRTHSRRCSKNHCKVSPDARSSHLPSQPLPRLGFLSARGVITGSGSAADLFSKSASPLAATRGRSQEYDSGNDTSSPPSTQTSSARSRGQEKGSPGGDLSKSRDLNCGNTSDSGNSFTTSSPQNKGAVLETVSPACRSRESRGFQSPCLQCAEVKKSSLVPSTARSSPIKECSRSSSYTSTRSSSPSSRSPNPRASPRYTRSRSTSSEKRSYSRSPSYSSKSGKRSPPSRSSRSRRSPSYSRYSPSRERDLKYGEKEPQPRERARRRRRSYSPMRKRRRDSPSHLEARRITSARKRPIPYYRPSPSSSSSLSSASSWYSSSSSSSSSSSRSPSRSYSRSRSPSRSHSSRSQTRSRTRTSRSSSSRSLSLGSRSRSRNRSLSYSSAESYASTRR
assay info: AP-MS nSR100 interaction partners from mouse N2A cells (Table 5)
Type: binding
reported conditions: bait Srrm4, biological replicate 1 (first number of the cell), AP-MS
endpoint: Spectra (number of spectra for the prey in the purification of the bait)

- molecule: "Luc7l (protein, UniProt Q9CYI4 1-371, looked up) Putative RNA-binding protein …: MSAQAQMRALLDQLMGTARDGDETRQRVKFTDDRVCKSHLLDCCPHDILAGTRMDLGECTKIHDLALRADYEIASKERDLFFELDAMDHLESFIAECDRRTELAKKRLAETQEEISAEVSAKAEKVHELNEEIGKLLAKAEQLGAEGNVDESQKILMEVEKVRAKKKEAEEEYRNSMPASSFQQQKLRVCEVCSAYLGLHDNDRRLADHFGGKLHLGFIQIREKLDQLRKTVAEKQEKRNQDRLRRREEREREERLGRRSGSRTRDRRRSRSRDRRRRRSRSTSRERRKFSRSRSRDRYRRHRSRSRSHSRGHRRASRDRSTKYKFSRERSLREESWEYGRNERGPTDWRLENSNGKTASRRSEEKEAGEI"
  result number: 18
- molecule: "U2af1 (protein, UniProt Q9D883 2-239, looked up) Splicing factor U2AF 35 kDa …: AEYLASIFGTEKDKVNCSFYFKIGACRHGDRCSRLHNKPTFSQTIALLNIYRNPQNSSQSADGLRCAVSDVEMQEHYDEFFEEVFTEMEEKYGEVEEMNVCDNLGDHLVGNVYVKFRREEDAEKAVIDLNNRWFNGQPIHAELSPVTDFREACCRQYEMGECTRGGFCNFMHLKPISRELRRELYGRRRKKHRSRSRSRERRSRSRDRGRGGGGGGGGGGGRERDRRRSRDRERSGRF"
  result number: 22
- molecule: "Rnps1 (protein, UniProt Q99M28 1-305, looked up) RNA-binding protein with …: MDLSGVKKKSLLGVKENNKKSSTRAPSPTKRKDRSDEKSKDRSKDKGATKESSEKDRGRDKTRKRRSASSGSSSTRSRSSSTSSSGSSTSTGSSSGSSSSSASSRSGSSSTSRSSSSSSSSGSPSPSRRRHDNRRRSRSKSKPPKRDEKERKRRSPSPKPTKVHIGRLTRNVTKDHIMEIFSTYGKIKMIDMPVERMHPHLSKGYAYVEFENPDEAEKALKHMDGGQIDGQEITATAVLAPWPRPPPRRFSPPRRMLPPPPMWRRSPPRMRRRSRSPRRRSPVRRRSRSPGRRRHRSRSSSNSSR"
  result number: 26
